For each record, write down the corresponding IC50.
# measured_target: ErbB2 with Exon 20 YVMA insertion (HER2-YVMA) (Homo sapiens (Human), UniProt P04626, INS775YVMA)
# Sequence (P04626 other isoform, or with tags, fused parts or gaps ins YVMA behind 775): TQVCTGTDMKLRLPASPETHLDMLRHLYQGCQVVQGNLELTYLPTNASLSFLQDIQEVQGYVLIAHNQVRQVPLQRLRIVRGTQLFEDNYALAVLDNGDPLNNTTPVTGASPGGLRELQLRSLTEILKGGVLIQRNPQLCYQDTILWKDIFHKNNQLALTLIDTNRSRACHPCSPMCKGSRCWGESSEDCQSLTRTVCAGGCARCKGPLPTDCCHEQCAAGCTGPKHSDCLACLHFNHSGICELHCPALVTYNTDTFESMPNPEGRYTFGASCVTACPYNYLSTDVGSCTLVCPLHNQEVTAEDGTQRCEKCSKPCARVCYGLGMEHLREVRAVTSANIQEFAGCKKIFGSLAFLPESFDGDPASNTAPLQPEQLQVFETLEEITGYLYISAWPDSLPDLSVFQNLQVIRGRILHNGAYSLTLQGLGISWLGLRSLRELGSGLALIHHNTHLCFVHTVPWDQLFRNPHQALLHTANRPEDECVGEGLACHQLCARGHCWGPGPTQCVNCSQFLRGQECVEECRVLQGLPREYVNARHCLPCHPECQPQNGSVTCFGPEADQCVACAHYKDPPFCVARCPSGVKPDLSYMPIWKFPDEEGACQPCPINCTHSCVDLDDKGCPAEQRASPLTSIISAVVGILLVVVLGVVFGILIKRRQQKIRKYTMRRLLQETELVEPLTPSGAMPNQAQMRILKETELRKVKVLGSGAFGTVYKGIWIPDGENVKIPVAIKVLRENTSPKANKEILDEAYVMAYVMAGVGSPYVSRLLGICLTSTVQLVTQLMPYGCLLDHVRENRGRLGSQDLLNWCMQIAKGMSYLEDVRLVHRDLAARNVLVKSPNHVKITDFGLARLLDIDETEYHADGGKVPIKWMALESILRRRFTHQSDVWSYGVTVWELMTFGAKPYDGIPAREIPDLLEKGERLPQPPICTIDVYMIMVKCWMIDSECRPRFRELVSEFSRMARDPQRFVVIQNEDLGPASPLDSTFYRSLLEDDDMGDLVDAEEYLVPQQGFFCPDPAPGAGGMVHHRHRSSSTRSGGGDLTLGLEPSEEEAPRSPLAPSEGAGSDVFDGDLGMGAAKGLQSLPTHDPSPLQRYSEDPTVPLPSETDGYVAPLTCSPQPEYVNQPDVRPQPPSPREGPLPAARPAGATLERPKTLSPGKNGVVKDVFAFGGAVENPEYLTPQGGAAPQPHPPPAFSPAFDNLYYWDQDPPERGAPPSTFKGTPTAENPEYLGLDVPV
# assay_notes: Cellular Phosphorylation Assay, Assay 4 (constitutive ErbB2 phosphorylation, NIH 3T3 cells)
# Format: cell-based
# test_parameters: cellular ErbB2 YVMA phosphorylation
Answer with the value and then the unit.

Request: # input compound: C=CC(=O)N1CCCN(c2ccc3ncnc(Nc4ccc(Oc5ccn6ncnc6c5)c(Cl)c4F)c3n2)CC1(C)C [Example 261] ; wanted: its IC50
Result: 27.9 nM

Request: Follow-up item: C=CC(=O)N1CCN(c2ccc3ncnc(Nc4cc(Cl)c(Oc5cnc6c(c5)ncn6C)cc4F)c3n2)CC1(C)C [Example 452]
Result: 12.8 nM

Request: Follow-up item: C=CC(=O)N1CCN(c2ccc3ncnc(Nc4ccc(Oc5ccn6ncnc6c5)c(Cl)c4F)c3n2)C[C@H]1C(C)C [Example 291]
Result: 9.5 nM

Request: Follow-up item: C=CC(=O)N1C[C@@H]2CN(c3ccc4ncnc(Nc5ccc(Oc6ccn7ncnc7c6)c(C)c5F)c4n3)C[C@@H]21 [Example 318]
Result: 29.8 nM

Request: Follow-up item: C=CC(=O)N1[C@H]2CC[C@@H]1[C@H](c1ccc3ncnc(Nc4ccc(Oc5ccn6ncnc6c5)c(C)c4F)c3n1)CC2 [Example 429]
Result: 13.8 nM

Request: Follow-up item: C=CC(=O)N1CCN(c2ccc3ncnc(Nc4ccc(Oc5ccn6ncnc6c5)c(C)c4F)c3n2)C[C@H]1COC [Example 358]
Result: 2.9 nM

Request: Follow-up item: C=CC(=O)N1C[C@H](c2ccc3ncnc(Nc4cc(C)c(Oc5ccn6ncnc6c5)cc4F)c3n2)C[C@H]1C (mixture of isomers) [Example 386]
Result: 235 nM

Request: Follow-up item: C=CC(=O)N(C)[C@H]1CCN(c2ccc3ncnc(Nc4cc(C)c(Oc5ccn6ncnc6c5)cc4F)c3n2)C1 [Example 351]
Result: 31 nM

Request: Follow-up item: C=CC(=O)N1[C@H](C)CN(c2ccc3ncnc(Nc4cc(C)c(Oc5ccn6ncnc6c5)cc4F)c3n2)C[C@@H]1C [Example 263]
Result: 204 nM

Request: Follow-up item: C=CC(=O)N1C[C@@H]2C[C@H](c3ccc4ncnc(Nc5cc(C)c(Oc6ccc7c(c6)ncn7C)cc5F)c4n3)C[C@H]1C2 [Example 388]
Result: 28.1 nM

Request: Follow-up item: C=CC(=O)N1CCN(c2ccc3ncnc(Nc4ccc(Oc5ccn6ncnc6c5)c(C)c4F)c3n2)C[C@H]1C1CC1 [Example 283]
Result: 33.6 nM

Request: Follow-up item: C=CC(=O)N1C2CCC1CN(c1ccc3ncnc(Nc4ccc(Oc5ccc6c(c5)ncn6C)c(C)c4F)c3n1)C2 [Example 431]
Result: 13.1 nM

Request: Follow-up item: C=CC(=O)N1CCN(c2ccc3ncnc(Nc4cc(Cl)c(Oc5cnc6c(c5)ncn6C)cc4F)c3n2)C[C@H]1C1CC1 [Example 430]
Result: 38.2 nM

Request: Follow-up item: C=CC(=O)N1[C@@H](C)CN(c2ccc3ncnc(Nc4cc(Cl)c(Oc5ccc6c(c5)ncn6C)cc4F)c3n2)C[C@@H]1C [Example 258]
Result: 99.9 nM
